# STUDY_SYSTEM: hERG (KCNH2) (Homo sapiens, UniProt Q12809)
# Sequence (Q12809 whole entry): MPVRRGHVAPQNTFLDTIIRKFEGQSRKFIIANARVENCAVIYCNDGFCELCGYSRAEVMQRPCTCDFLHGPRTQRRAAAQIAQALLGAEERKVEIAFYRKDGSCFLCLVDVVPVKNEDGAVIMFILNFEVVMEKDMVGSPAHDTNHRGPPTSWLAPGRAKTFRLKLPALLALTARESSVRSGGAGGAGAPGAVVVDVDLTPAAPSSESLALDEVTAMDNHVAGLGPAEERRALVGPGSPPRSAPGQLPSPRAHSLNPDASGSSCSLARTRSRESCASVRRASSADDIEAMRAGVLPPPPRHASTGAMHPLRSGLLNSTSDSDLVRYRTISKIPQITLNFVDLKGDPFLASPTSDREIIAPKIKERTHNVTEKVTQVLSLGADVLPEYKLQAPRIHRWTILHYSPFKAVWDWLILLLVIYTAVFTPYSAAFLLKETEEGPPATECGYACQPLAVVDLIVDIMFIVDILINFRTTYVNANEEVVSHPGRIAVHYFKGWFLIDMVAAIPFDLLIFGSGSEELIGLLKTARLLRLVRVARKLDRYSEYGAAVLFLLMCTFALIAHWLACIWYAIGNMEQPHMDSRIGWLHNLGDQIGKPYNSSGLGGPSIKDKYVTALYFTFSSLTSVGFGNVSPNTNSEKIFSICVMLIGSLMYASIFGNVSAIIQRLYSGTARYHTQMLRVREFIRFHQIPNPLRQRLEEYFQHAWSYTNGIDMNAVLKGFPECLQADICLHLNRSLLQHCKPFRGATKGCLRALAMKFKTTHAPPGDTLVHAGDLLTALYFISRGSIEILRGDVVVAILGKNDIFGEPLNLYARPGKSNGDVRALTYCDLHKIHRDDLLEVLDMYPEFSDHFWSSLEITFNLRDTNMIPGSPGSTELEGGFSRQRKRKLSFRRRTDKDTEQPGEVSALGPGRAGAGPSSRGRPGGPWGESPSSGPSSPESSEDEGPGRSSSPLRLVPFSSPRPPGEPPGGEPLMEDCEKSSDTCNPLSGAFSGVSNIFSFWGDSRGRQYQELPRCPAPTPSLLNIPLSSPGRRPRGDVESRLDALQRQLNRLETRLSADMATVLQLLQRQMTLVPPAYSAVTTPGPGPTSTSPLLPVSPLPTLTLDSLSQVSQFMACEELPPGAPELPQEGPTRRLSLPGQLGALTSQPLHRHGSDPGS
# METHOD_DESCRIPTION: Inhibition of hERG expressed in mammalian cells at 10 uM by automated patch-clamp technique relative to control
# Type: toxicity, cell-based
# MEASUREMENT_SETUP: mammalian cells expressing hERG
PARAMETER: inhibition at 10 µM (%)

C#CCNC(=O)C(=O)c1c(C)c(C(=O)Nc2ccc(F)c(F)c2)n(C)c1C : 31.2

###

# METHOD_DESCRIPTION: Half life in Sprague-Dawley rat at 1 mg/kg, iv by LC-MS/MS analysis
# Type: ADME, organism-based
# MEASUREMENT_SETUP: in vivo
PARAMETER: half-life

C#CC1(NC(=O)C(=O)c2c(C)c(C(=O)Nc3ccc(F)c(C#N)c3)n(C)c2C)COC1 : 1.64 h

###

# STUDY_SYSTEM: Organic anion transporter 1 (Homo sapiens)
# METHOD_DESCRIPTION: Inhibition of OAT1 (unknown origin) transfected in HEK293 cells
pIC50: −log10 of the molar value.
PARAMETER: pIC50

C#CC1(NC(=O)C(=O)c2c(C)c(C(=O)Nc3ccc(F)c(C#N)c3)n(C)c2C)COC1 : < 4.93

###

# METHOD_DESCRIPTION: AUC (infinity) in C57BL/6J mouse at 5 mg/kg, po by LC-MS/MS analysis
# Type: ADME, organism-based
# MEASUREMENT_SETUP: in vivo
PARAMETER: AUC(0-inf) (ng·h/mL)

C#CC1(NC(=O)C(=O)c2c(C)c(C(=O)Nc3ccc(F)c(C#N)c3)n(C)c2C)COC1 : 7990

###

# METHOD_DESCRIPTION: AUC (infinity) in C57BL/6J mouse at 1 mg/kg, iv by LC-MS/MS analysis
# Assay type: ADME, organism-based
# MEASUREMENT_SETUP: in vivo
PARAMETER: AUC(0-inf) (ng·h/mL)

C#CC1(NC(=O)C(=O)c2c(C)c(C(=O)Nc3ccc(F)c(C#N)c3)n(C)c2C)COC1 : 1390

###

Measured half-life at 1 µM by item
# METHOD_DESCRIPTION: Metabolic stability in Cynomolgous monkey liver microsomes assessed as half life at 1 uM incubated upto 60 mins in presence of NADPH
# Format: ADME, Macaca fascicularis, Microsome
# MEASUREMENT_SETUP: cynomolgus monkey
PARAMETER: half-life at 1 µM

C#CC1(NC(=O)C(=O)c2c(C)c(C(=O)Nc3ccc(F)c(C#N)c3)n(C)c2C)COC1 : > 1 h
C#CC1(N(COP(=O)([O-])[O-])C(=O)C(=O)c2c(C)c(C(=O)Nc3ccc(F)c(C#N)c3)n(C)c2C)COC1.[Na+].[Na+] : > 1 h

###

# STUDY_SYSTEM: Solute carrier family 22 member 6 (Homo sapiens, UniProt Q4U2R8)
# Sequence (Q4U2R8 whole entry): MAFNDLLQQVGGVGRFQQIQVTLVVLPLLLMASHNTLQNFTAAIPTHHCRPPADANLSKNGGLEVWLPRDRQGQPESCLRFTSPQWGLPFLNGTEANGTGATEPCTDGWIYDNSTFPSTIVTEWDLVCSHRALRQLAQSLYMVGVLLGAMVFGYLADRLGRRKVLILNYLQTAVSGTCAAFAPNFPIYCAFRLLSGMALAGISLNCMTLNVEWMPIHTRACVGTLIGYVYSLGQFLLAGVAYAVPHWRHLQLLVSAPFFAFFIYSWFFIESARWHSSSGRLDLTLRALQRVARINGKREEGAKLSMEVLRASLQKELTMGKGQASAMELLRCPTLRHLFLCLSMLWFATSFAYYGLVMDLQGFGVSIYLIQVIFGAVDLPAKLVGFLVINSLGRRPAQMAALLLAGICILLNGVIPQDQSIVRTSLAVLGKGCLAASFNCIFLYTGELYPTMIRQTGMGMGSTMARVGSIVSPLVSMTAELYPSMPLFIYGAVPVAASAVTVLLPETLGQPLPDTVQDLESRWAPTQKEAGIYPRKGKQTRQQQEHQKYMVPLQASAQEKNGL
# METHOD_DESCRIPTION: Inhibition of OAT1 (unknown origin) transfected in HEK293 cells
pIC50: −log10 of the molar value.
PARAMETER: pIC50

C#CC1(N(COP(=O)([O-])[O-])C(=O)C(=O)c2c(C)c(C(=O)Nc3ccc(F)c(C#N)c3)n(C)c2C)COC1.[Na+].[Na+] : 4.97
